Data origin: PubChem BioAssay (NCATS)

System: P94_40
procedure_text: qHTS profiling for inhibitors of Plasmodium falciparum proliferation (AID 504749); further: nearly all actives have a fitted effect of over 60% in size
assay_conditions: P. falciparum in erythrocytes, SYBR Green DNA, 72 h; series mostly up to 28.7 µM
Results filed as inconclusive are left out. Activity calls are given as the source filed them. The call rests on the fitted dose curve; in most records, active means well fitted inhibition curve with a large enough effect; inconclusive means small, poorly fitted or top-dose-only effect; inactive means flat fitted curve, though single readings scatter.
Could you please pick one outcome from this set? active, inactive

Example entries begin here.
compound: CCCCN1CCCC1C(=O)Nc1c(C)cc(C)cc1C (centres undefined)
label: inactive
//
compound: CCCCCCCCCCCCCCCCOP(=O)([O-])OCC[N+](C)(C)C
label: inactive
//
compound: Oc1c(Cl)cc(Cl)cc1Sc1cc(Cl)cc(Cl)c1O
label: inactive
//
compound: CC(O)C(=O)O (centres undefined)
label: inactive
//
compound: CC1(C)CCC(NC(=O)[C@@H](N)CCC(=O)O)CC1
label: inactive
//
compound: C[C@@H]1C[C@H]2[C@@H]3CCC4=CC(=O)C=C[C@]4(C)[C@@]3(F)[C@@H](O)C[C@]2(C)[C@H]1C(=O)CO
label: inactive
//
compound: NC(CO)(CO)CO
label: inactive
//
compound: CC(C)(C(=O)c1cccnc1)c1cccnc1
label: inactive

input: Which outcome was assigned to NCCC(O)(P(=O)(O)O)P(=O)(O)O in this test?
output: inactive

input: Which outcome was assigned to Cc1c(C(N)=O)cc([N+](=O)[O-])cc1[N+](=O)[O-] in this test?
output: inactive

input: Which outcome was assigned to CN(C)CC/C=C1\c2ccccc2Sc2ccc(Cl)cc21 in this test?
output: active

input: Which outcome was assigned to CC[N+](CC)(CCNC(=O)C(=O)NCC[N+](CC)(CC)Cc1ccccc1Cl)Cc1ccccc1Cl in this test?
output: active

input: Which outcome was assigned to O=C(Nc1ccc(Cl)c(Cl)c1)C1CC1 in this test?
output: inactive

input: Which outcome was assigned to C[C@@H]1CN(CCCn2c3ccccc3c3ccccc32)C[C@H](C)N1 in this test?
output: active

input: Which outcome was assigned to NCCCC[C@H](N[C@@H](CCc1ccccc1)C(=O)O)C(=O)N1CCC[C@H]1C(=O)O in this test?
output: inactive

input: Which outcome was assigned to COc1ccc(CCN2CCC(Nc3nc4ccccc4n3Cc3ccc(F)cc3)CC2)cc1 in this test?
output: active

input: Which outcome was assigned to O=C(N/N=C/c1ccccc1O)c1ccncc1 in this test?
output: active

input: Which outcome was assigned to OC(CCN1CCCCC1)(c1ccccc1)c1ccccc1 in this test?
output: active

###

procedure_text: Drug repurposing screens with cells derived from glioblastoma tumor samples (AID 1345199); further: on the % scale 0 is the no-effect control and ±100 the full control effect; nearly all actives have a fitted effect of over 40% in size
assay_conditions: GBM patient neurospheres viability, ATP luminescence, 48 h; at 46.1 µM (top of the series); tumour line C
Inconclusive results are not listed.
metric_name: activity, negative = cell killing (%)
Supply the numeric figure in %, leaving out any unit text.

In the examples that follow, each entry is paired with its recorded activity, negative = cell killing.
compound: O=C(O)CCCCC(=O)O
activity, negative = cell killing [%]: 0.572

compound: CN1C(CCl)Nc2cc(Cl)c(S(N)(=O)=O)cc2S1(=O)=O (stereo unspecified)
activity, negative = cell killing [%]: -28.6

compound: Oc1ccc(O)cc1
activity, negative = cell killing [%]: -0.769

compound: Cc1cccn2c(=O)c(-c3nnn[nH]3)cnc12
activity, negative = cell killing [%]: -18.6

compound: CCN1CCN(c2cc3c(cc2F)c(=O)c(C(=O)O)cn3C2CC2)CC1
activity, negative = cell killing [%]: 17.2

Please look at the following compound next.
input: Answer with reported activity, negative = cell killing of Cc1c(C)n(Cc2ccccc2)c2ccc(C(=O)OCCN(C)C)cc12
output: -16.7
